System: SARS-CoV-2
Conditions: 10 µM
attribute.measured: % Inh. (% Inhibition of SARS-CoV-2) (%)
Answers are plain numbers, in %.

# count of solved cases: 2
O=C(NC1CCN(Cc2ccccc2)CC1)c1ccc(I)cc1 [4-IBP] | 89.9
CN(C)C(=O)C(=O)c1cn(C)c2cc(Cl)c(C(=O)N3CCC(Cc4ccc(F)cc4)CC3)cc12 [SX-011] | 94.1

For every item in the list below, what is its measured % Inh. (% Inhibition of SARS-CoV-2)?
1. CNC[C@H](O)[C@@H](O)[C@H](O)[C@H](O)CO.CNC[C@H](O)[C@@H](O)[C@H](O)[C@H](O)CO.C[C@@H](O[C@H]1OCCN(Cc2nn(P(=O)(O)O)c(=O)[nH]2)[C@H]1c1ccc(F)cc1)c1cc(C(F)(F)F)cc(C(F)(F)F)c1 [Fosaprepitant dimeglumine salt]
2. C/C(=N\NC(=S)N1CCC1)c1ccccn1 [NSC319726]
3. CCOC(=O)c1ncc2[nH]c3ccc(OCc4ccccc4)cc3c2c1COC.Cl [ZK-93423]
4. O=C(Nc1ccc(CN2CCOCC2)cc1)c1ccc(-c2cccc(Cl)c2)o1 [CID-2011756]
5. Cc1cc(I)ccc1Nc1c(C(=O)NOCC2CC2)cc(F)c(F)c1F [PD-198306]
6. C=C1/C(=C\C=C2/CCC[C@]3(C)[C@@H]([C@H](C)/C=C/[C@H](C)C(C)(C)O)CC[C@@H]23)C[C@@H](O)C[C@@H]1O [Ercalcitriol]
7. N#CC(=C(N)Sc1ccc(N)cc1)c1ccccc1C(F)(F)F [MEK1-2-inhibitor]
8. COc1cc2c(cc1OC)CN(C(=O)/C=C/c1c(-c3ccccc3)n(C)c3ncccc13)CC2 [SIS3]

1: 78.3; 2: 104.2; 3: 75.1; 4: 97.0; 5: 51.6; 6: 86.9; 7: 66.9; 8: 99.3

So what does the record say about % Inh. (% Inhibition of SARS-CoV-2) for Cc1c(NC(=O)OC[C@@H]2COCCN2)cn2ncnc(Nc3ccc4c(cnn4Cc4cccc(F)c4)c3)c12 [BMS-599626] ?
76.4

Reference for the values: patent US20230126310A1
